Reference for the values: patent US11084790B2

assay: Test on the solubility in a simulated body fluid; format: physicochemical; conditions: 0.01 M PBS pH 7.4, 37° C., 30 min
Label True when Compound concentration: Bupivacaine >= 8000 µM; otherwise False.

{"MOLECULE": "CCCCN1CCCCC1C(=O)Nc1c(C)cccc1C.CCCCN1CCCCC1C(=O)Nc1c(C)cccc1C.Cc1ccc(C(=O)OC(C(=O)O)C(OC(=O)c2ccc(C)cc2)C(=O)O)cc1 (stereo not shown) [Preparation Example 4, bis(bupivacaine) di-p-toluoyl tartarate]", "CLASS_ASSIGNMENT": "True"}
{"MOLECULE": "CCCCN1CCCCC1C(=O)Nc1c(C)cccc1C.O=C(OC(C(=O)O)C(OC(=O)c1ccccc1)C(=O)O)c1ccccc1 (stereo not shown) [Preparation Example 1, mono(bupivacaine) dibenzoyl tartarate]", "CLASS_ASSIGNMENT": "False"}
{"MOLECULE": "CC1(C)C2CCC1(CS(=O)(=O)O)C(=O)C2.CCCCN1CCCCC1C(=O)Nc1c(C)cccc1C (stereo not shown) [Preparation Example 8, bupivacaine camphorsulfonate]", "CLASS_ASSIGNMENT": "True"}
{"MOLECULE": "CCCCN1CCCCC1C(=O)Nc1c(C)cccc1C.CCCCN1CCCCC1C(=O)Nc1c(C)cccc1C.O=C(O)c1cc2ccccc2c(Cc2c(O)c(C(=O)O)cc3ccccc23)c1O [Preparation Example 30, bis(bupivacaine) pamoate]", "CLASS_ASSIGNMENT": "False"}
{"MOLECULE": "CCCCN1CCCCC1C(=O)Nc1c(C)cccc1C.CCCCN1CCCCC1C(=O)Nc1c(C)cccc1C.O=C(O)c1cc2ccccc2c(Cc2c(O)c(C(=O)O)cc3ccccc23)c1O [Preparation Example 12, bis(bupivacaine) pamoate]", "CLASS_ASSIGNMENT": "False"}
{"MOLECULE": "CCCCN1CCCCC1C(=O)Nc1c(C)cccc1C.O=P1(O)Oc2ccc3ccccc3c2-c2c(ccc3ccccc23)O1 [Preparation Example 7, bupivacaine binaphthol phosphate]", "CLASS_ASSIGNMENT": "False"}
{"MOLECULE": "CCCCN1CCCCC1C(=O)Nc1c(C)cccc1C.O=C(O)c1cc2ccccc2c(Cc2c(O)c(C(=O)O)cc3ccccc23)c1O [Preparation Example 10, mono(bupivacaine) pamoate]", "CLASS_ASSIGNMENT": "False"}

---

Listed below: Compound concentration: Bupivacaine values for each entry.
assay: Test on the solubility in a simulated body fluid; assay type: physicochemical; settings: 0.01 M PBS pH 7.4, 37° C., 5 min
METRIC: Compound concentration: Bupivacaine (µM)

{"MOLECULE": "CCCCN1CCCCC1C(=O)Nc1c(C)cccc1C.CCCCN1CCCCC1C(=O)Nc1c(C)cccc1C.O=C(O)c1cc2ccccc2c(Cc2c(O)c(C(=O)O)cc3ccccc23)c1O [Preparation Example 29, bis(bupivacaine) pamoate]", "READOUT_UNITS": "µM", "MEASURED_RESULT": 159.8}
{"MOLECULE": "CCCCN1CCCCC1C(=O)Nc1c(C)cccc1C.CCCCN1CCCCC1C(=O)Nc1c(C)cccc1C.O=C(OC(C(=O)O)C(OC(=O)c1ccccc1)C(=O)O)c1ccccc1 (centres unmarked) [Preparation Example 2, bis(bupivacaine) dibenzoyl tartarate]", "READOUT_UNITS": "µM", "MEASURED_RESULT": 819}
{"MOLECULE": "CCCCN1CCCCC1C(=O)Nc1c(C)cccc1C.O=C(OC(C(=O)O)C(OC(=O)c1ccccc1)C(=O)O)c1ccccc1 (centres unmarked) [Preparation Example 1, mono(bupivacaine) dibenzoyl tartarate]", "READOUT_UNITS": "µM", "MEASURED_RESULT": 4884.6}
{"MOLECULE": "CCCCN1CCCCC1C(=O)Nc1c(C)cccc1C.CCCCN1CCCCC1C(=O)Nc1c(C)cccc1C.O=C(O)c1cc2ccccc2c(Cc2c(O)c(C(=O)O)cc3ccccc23)c1O [Preparation Example 12, bis(bupivacaine) pamoate]", "READOUT_UNITS": "µM", "MEASURED_RESULT": 147.5}
{"MOLECULE": "CCCCN1CCCCC1C(=O)Nc1c(C)cccc1C.CCCCN1CCCCC1C(=O)Nc1c(C)cccc1C.O=C(O)c1cc2ccccc2c(Cc2c(O)c(C(=O)O)cc3ccccc23)c1O [Preparation Example 15, bis(bupivacaine) pamoate]", "READOUT_UNITS": "µM", "MEASURED_RESULT": 112.8}
{"MOLECULE": "CCCCN1CCCCC1C(=O)Nc1c(C)cccc1C.Cc1ccc(C(=O)OC(C(=O)O)C(OC(=O)c2ccc(C)cc2)C(=O)O)cc1 (centres unmarked) [Preparation Example 3, mono(bupivacaine) di-p-toluoyl tartarate]", "READOUT_UNITS": "µM", "MEASURED_RESULT": 7947.6}
{"MOLECULE": "CCCCN1CCCCC1C(=O)Nc1c(C)cccc1C.CCCCN1CCCCC1C(=O)Nc1c(C)cccc1C.O=C(O)c1cc2ccccc2c(Cc2c(O)c(C(=O)O)cc3ccccc23)c1O [Preparation Example 30, bis(bupivacaine) pamoate]", "READOUT_UNITS": "µM", "MEASURED_RESULT": 142.3}
{"MOLECULE": "CCCCN1CCCCC1C(=O)Nc1c(C)cccc1C.O=C(O)c1cc2ccccc2c(Cc2c(O)c(C(=O)O)cc3ccccc23)c1O [Preparation Example 10, mono(bupivacaine) pamoate]", "READOUT_UNITS": "µM", "MEASURED_RESULT": 722}

---

experiment: Test on the solubility in a simulated body fluid; format: physicochemical; settings: simulated body fluid
METRIC: stability of the suspension (ratio between acid radical and basic group)

{"MOLECULE": "CCCCN1CCCCC1C(=O)Nc1c(C)cccc1C.CCCCN1CCCCC1C(=O)Nc1c(C)cccc1C.O=C(O)c1cc2ccccc2c(Cc2c(O)c(C(=O)O)cc3ccccc23)c1O [Preparation Example 15, bis(bupivacaine) pamoate]", "MEASURED_RESULT": "stable"}
{"MOLECULE": "CCCCN1CCCCC1C(=O)Nc1c(C)cccc1C.CCCCN1CCCCC1C(=O)Nc1c(C)cccc1C.O=C(O)c1cc2ccccc2c(Cc2c(O)c(C(=O)O)cc3ccccc23)c1O [Preparation Example 30, bis(bupivacaine) pamoate]", "MEASURED_RESULT": "stable"}
{"MOLECULE": "CCCCN1CCCCC1C(=O)Nc1c(C)cccc1C.O=P1(O)Oc2ccc3ccccc3c2-c2c(ccc3ccccc23)O1 [Preparation Example 7, bupivacaine binaphthol phosphate]", "MEASURED_RESULT": "stable"}

---

assay: Test on the solubility in a simulated body fluid; format: physicochemical; conditions: simulated body fluid
METRIC: stability of the suspension (ratio between acid radical and basic group)

{"MOLECULE": "CCCN1CCCC[C@H]1C(=O)Nc1c(C)cccc1C.O=C(O)c1cc2ccccc2c(Cc2c(O)c(C(=O)O)cc3ccccc23)c1O [Preparation Example 9, mono(ropivacaine) pamoate]", "MEASURED_RESULT": "stable"}
{"MOLECULE": "CCCCN1CCCCC1C(=O)Nc1c(C)cccc1C.CCCCN1CCCCC1C(=O)Nc1c(C)cccc1C.O=C(O)c1cc2ccccc2c(Cc2c(O)c(C(=O)O)cc3ccccc23)c1O [Preparation Example 29, bis(bupivacaine) pamoate]", "MEASURED_RESULT": "stable"}
{"MOLECULE": "CCCCN1CCCCC1C(=O)Nc1c(C)cccc1C.CCCCN1CCCCC1C(=O)Nc1c(C)cccc1C.O=C(O)c1cc2ccccc2c(Cc2c(O)c(C(=O)O)cc3ccccc23)c1O [Preparation Example 12, bis(bupivacaine) pamoate]", "MEASURED_RESULT": "stable"}

---

assay: Test on the solubility in a simulated body fluid; type: physicochemical; details: 0.01 M PBS pH 7.4, 37° C., 15 min
Label Satisfied when Compound concentration: Bupivacaine >= 300 µM; otherwise Not satisfied.

{"COMPOUND": "CC1(C)C2CCC1(CS(=O)(=O)O)C(=O)C2.CCCCN1CCCCC1C(=O)Nc1c(C)cccc1C (centres unmarked) [Preparation Example 8, bupivacaine camphorsulfonate]", "CLASS_ASSIGNMENT": "Satisfied"}
{"COMPOUND": "CCCCN1CCCCC1C(=O)Nc1c(C)cccc1C.CCCCN1CCCCC1C(=O)Nc1c(C)cccc1C.O=C(O)c1cc2ccccc2c(Cc2c(O)c(C(=O)O)cc3ccccc23)c1O [Preparation Example 15, bis(bupivacaine) pamoate]", "CLASS_ASSIGNMENT": "Not satisfied"}
{"COMPOUND": "CCCCN1CCCCC1C(=O)Nc1c(C)cccc1C.O=P1(O)Oc2ccc3ccccc3c2-c2c(ccc3ccccc23)O1 [Preparation Example 7, bupivacaine binaphthol phosphate]", "CLASS_ASSIGNMENT": "Not satisfied"}
{"COMPOUND": "CCCCN1CCCCC1C(=O)Nc1c(C)cccc1C.CCCCN1CCCCC1C(=O)Nc1c(C)cccc1C.O=C(OC(C(=O)O)C(OC(=O)c1ccccc1)C(=O)O)c1ccccc1 (centres unmarked) [Preparation Example 2, bis(bupivacaine) dibenzoyl tartarate]", "CLASS_ASSIGNMENT": "Satisfied"}
{"COMPOUND": "CCCCN1CCCCC1C(=O)Nc1c(C)cccc1C.O=C(O)c1cc2ccccc2c(Cc2c(O)c(C(=O)O)cc3ccccc23)c1O [Preparation Example 10, mono(bupivacaine) pamoate]", "CLASS_ASSIGNMENT": "Satisfied"}
{"COMPOUND": "CCCCN1CCCCC1C(=O)Nc1c(C)cccc1C.CCCCN1CCCCC1C(=O)Nc1c(C)cccc1C.O=C(O)c1cc2ccccc2c(Cc2c(O)c(C(=O)O)cc3ccccc23)c1O [Preparation Example 12, bis(bupivacaine) pamoate]", "CLASS_ASSIGNMENT": "Not satisfied"}
{"COMPOUND": "CCCCN1CCCCC1C(=O)Nc1c(C)cccc1C.O=C(OC(C(=O)O)C(OC(=O)c1ccccc1)C(=O)O)c1ccccc1 (centres unmarked) [Preparation Example 1, mono(bupivacaine) dibenzoyl tartarate]", "CLASS_ASSIGNMENT": "Satisfied"}
{"COMPOUND": "CCCCN1CCCCC1C(=O)Nc1c(C)cccc1C.Cc1ccc(C(=O)OC(C(=O)O)C(OC(=O)c2ccc(C)cc2)C(=O)O)cc1 (centres unmarked) [Preparation Example 3, mono(bupivacaine) di-p-toluoyl tartarate]", "CLASS_ASSIGNMENT": "Satisfied"}
{"COMPOUND": "CCCCN1CCCCC1C(=O)Nc1c(C)cccc1C.CCCCN1CCCCC1C(=O)Nc1c(C)cccc1C.O=C(O)c1cc2ccccc2c(Cc2c(O)c(C(=O)O)cc3ccccc23)c1O [Preparation Example 29, bis(bupivacaine) pamoate]", "CLASS_ASSIGNMENT": "Not satisfied"}
{"COMPOUND": "CCCCN1CCCCC1C(=O)Nc1c(C)cccc1C.CCCCN1CCCCC1C(=O)Nc1c(C)cccc1C.O=C(O)c1cc2ccccc2c(Cc2c(O)c(C(=O)O)cc3ccccc23)c1O [Preparation Example 30, bis(bupivacaine) pamoate]", "CLASS_ASSIGNMENT": "Not satisfied"}
{"COMPOUND": "CCCCN1CCCCC1C(=O)Nc1c(C)cccc1C.CCCCN1CCCCC1C(=O)Nc1c(C)cccc1C.Cc1ccc(C(=O)OC(C(=O)O)C(OC(=O)c2ccc(C)cc2)C(=O)O)cc1 (centres unmarked) [Preparation Example 4, bis(bupivacaine) di-p-toluoyl tartarate]", "CLASS_ASSIGNMENT": "Satisfied"}
